All figures here come from patent US8664257B2.

testedSystem: Recombinant human cathepsin A (Homo sapiens)
Construct: Recombinant human cathepsin A (residues 29-480, with a C-terminal 10-His tag); 10-His (C); purchased R&D Systems 1049-SE
protocol: Cathepsin A inhibitory activity
Type: biochemical
assaySetup: recombinant human cathepsin A; read-out: Activity (2): Cathepsin A inhibitory activity, IC50 class
pIC50: −log10 of the molar value.
This listing pairs compounds with measured pIC50.

Consider the following illustrative entries.
[
  {
    "compound": "COc1ccc(F)cc1C(CC(=O)O)NC(=O)c1cc(O)n(-c2ccc(F)cc2)n1 (stereo not shown) [Example 525]",
    "pIC50": "4.52 to 6.00"
  },
  {
    "compound": "O=C(O)CC(NC(=O)c1cc(O)n(-c2ccccc2F)n1)c1cc(F)ccc1C(F)(F)F (stereo not shown) [Example 477]",
    "pIC50": "6.00 to 7.00"
  },
  {
    "compound": "Cc1c(F)cccc1C(CC(=O)O)NC(=O)c1cc(O)n(-c2ccccc2)n1 (stereo not shown) [Example 494]",
    "pIC50": "6.00 to 7.00"
  },
  {
    "compound": "O=C(O)CC(NC(=O)c1cc(O)n(-c2cccc(Cl)c2)n1)c1cccc(Cl)c1 (stereo not shown) [Example 408]",
    "pIC50": "6.00 to 7.00"
  },
  {
    "compound": "O=C(O)CC(NC(=O)c1cc(O)n(-c2cccc(Cl)c2)n1)c1ccc(-c2ccccn2)cc1 (stereo not shown) [Example 513]",
    "pIC50": "6.00 to 7.00"
  },
  {
    "compound": "COCCNC(=O)C[C@H](NC(=O)c1cc(OC)n(-c2ccccc2F)n1)c1ccccc1C [Example 935]",
    "pIC50": "> 7.00"
  },
  {
    "compound": "O=C(O)C[C@H](NC(=O)c1cc(O)n(-c2cccc(F)c2)n1)c1c(F)cccc1F [Example 434]",
    "pIC50": "6.00 to 7.00"
  },
  {
    "compound": "Cc1c(F)cccc1C(CC(=O)O)NC(=O)c1cc(O)n(-c2ccc(F)cc2F)n1 (stereo not shown) [Example 447]",
    "pIC50": "6.00 to 7.00"
  }
]

Exercise: Consider the compound Cc1ccc([C@H](CC(=O)O)NC(=O)c2cc(O)n(-c3ccccc3)n2)cc1 [Example 445] . State its measured pIC50.
Key: 6.00 to 7.00

Exercise: Give me measured pIC50, please, for this compound: Cc1ccc([C@H](CC(=O)O)NC(=O)c2cc(O)n(-c3cccc(Cl)c3)n2)cc1 [Example 512]
Key: 6.00 to 7.00

Exercise: Quick one: give measured pIC50 for O=C(O)CC(NC(=O)c1cc(O)n(-c2ccccc2F)n1)c1cccc2c1OC(F)(F)O2 (stereo not shown) [Example 476]
Key: 6.00 to 7.00

Exercise: Output pIC50 of O=C(O)CC(NC(=O)c1cc(O)n(-c2ccccc2Cl)n1)c1cc(F)ccc1Cl (stereo not shown) [Example 458]
Key: 6.00 to 7.00

Exercise: Give the reported value of pIC50 for this record: O=C(O)CC(NC(=O)c1cc(O)n(-c2ccccc2F)n1)c1ccc(-c2ccccn2)cc1 (stereo not shown) [Example 481]
Key: 6.00 to 7.00

Exercise: Note down pIC50 recorded for O=C(O)C[C@H](NC(=O)c1cc(O)n(-c2cccc(Cl)c2)n1)c1cccc(F)c1 [Example 414]
Key: 4.52 to 6.00

Exercise: For the compound O=C(O)CC(NC(=O)c1cc(O)n(-c2ccc(F)cc2F)n1)c1ccc(-c2ccccn2)cc1 (stereo not shown) [Example 501] , report pIC50.
Key: > 7.00

Exercise: For the compound O=C(O)CC(NC(=O)c1cc(O)n(-c2cccc(Cl)c2)n1)c1cccc(C(F)(F)F)c1F (stereo not shown) [Example 418] , give its reported pIC50.
Key: 4.52 to 6.00

====

We begin with a simple list: items and their reported IC50.
testedSystem: Recombinant human cathepsin A (Homo sapiens, UniProt P10619)
Construct: Recombinant human cathepsin A (residues 29-480, with a C-terminal 10-His tag); 10-His (C); purchased R&D Systems 1049-SE
Sequence (P10619 29-312 limits assumed): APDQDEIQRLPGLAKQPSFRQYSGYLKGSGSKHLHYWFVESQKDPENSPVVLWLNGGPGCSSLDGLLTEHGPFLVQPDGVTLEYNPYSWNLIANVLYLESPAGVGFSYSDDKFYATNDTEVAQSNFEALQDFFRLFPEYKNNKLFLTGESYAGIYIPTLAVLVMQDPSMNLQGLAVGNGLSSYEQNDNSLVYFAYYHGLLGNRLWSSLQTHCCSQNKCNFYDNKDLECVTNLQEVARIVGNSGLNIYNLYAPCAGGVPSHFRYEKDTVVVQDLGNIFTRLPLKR
Sequence (P10619 327-480 limits assumed): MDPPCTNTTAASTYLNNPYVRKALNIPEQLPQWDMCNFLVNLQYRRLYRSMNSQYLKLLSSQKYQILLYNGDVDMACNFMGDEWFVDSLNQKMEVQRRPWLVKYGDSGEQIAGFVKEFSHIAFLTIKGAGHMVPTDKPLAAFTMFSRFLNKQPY
protocol: Cathepsin A inhibitory activity
Format: biochemical
assaySetup: read-out: Activity (2): Cathepsin A inhibitory activity, IC50 class

Here is how some molecules turned out for IC50.
[
  {
    "molecule": "Cc1ccc(C)c(-n2nc(C(=O)NC(CC(=O)O)C3CCOCC3)cc2O)c1 (stereo not shown) [Example 43]",
    "IC50": "1000 to 30000 nM"
  },
  {
    "molecule": "Cc1ccc(C)c(C(CC(=O)O)NC(=O)c2cc(O)n(-c3cccc(F)c3)n2)c1 (stereo not shown) [Example 321]",
    "IC50": "100 to 1000 nM"
  },
  {
    "molecule": "O=C(O)CC(NC(=O)c1cc(O)n(-c2ccccc2)n1)c1cccc(C(F)(F)F)c1 (stereo not shown) [Example 67]",
    "IC50": "100 to 1000 nM"
  }
]

Exercise: Provide measured IC50 value, entry: O=C(O)CC(NC(=O)c1cc(O)n(-c2cccc(F)c2)n1)c1ccc(-c2ccccc2)cc1 (stereo not shown) [Example 327]
Key: 100 to 1000 nM

====

testedSystem: Recombinant human cathepsin A (Homo sapiens)
Construct: Recombinant human cathepsin A (residues 29-480, with a C-terminal 10-His tag); 10-His (C); purchased R&D Systems 1049-SE
protocol: Cathepsin A inhibitory activity
Format: biochemical
assaySetup: pharmacological test "Cathepsin A inhibitory activity"; IC50 given as class A/B/C; read-out: Activity (2): Cathepsin A inhibitory activity, IC50 class
measurementType: IC50

[
  {
    "compound": "O=C(O)CC(NC(=O)c1cc(O)n(-c2ccccc2F)n1)c1ccc(-c2ccccc2)cc1 (stereo not shown)",
    "testedSystem": "Recombinant human cathepsin A (Homo sapiens)",
    "IC50": "< 0.1 µM"
  },
  {
    "compound": "Cc1cccc([C@H](CC(=O)O)NC(=O)c2cc(O)n(-c3cccc(Cl)c3)n2)c1",
    "testedSystem": "Recombinant human cathepsin A (Homo sapiens)",
    "IC50": "0.1 to 1 µM"
  },
  {
    "compound": "O=C(O)CC(NC(=O)c1cc(O)n(-c2cccc(Cl)c2)n1)c1cccc(C(F)(F)F)c1Cl (stereo not shown)",
    "testedSystem": "Recombinant human cathepsin A (Homo sapiens)",
    "IC50": "0.1 to 1 µM"
  },
  {
    "compound": "O=C(O)C[C@H](NC(=O)c1cc(O)n(-c2ccccc2Cl)n1)c1ccc(-c2ccc(F)cc2)cc1",
    "testedSystem": "Recombinant human cathepsin A (Homo sapiens)",
    "IC50": "1 to 30 µM"
  },
  {
    "compound": "O=C(O)CC(NC(=O)c1cc(O)n(-c2ccccc2F)n1)c1cccc(Cl)c1F (stereo not shown)",
    "testedSystem": "Recombinant human cathepsin A (Homo sapiens)",
    "IC50": "0.1 to 1 µM"
  },
  {
    "compound": "O=C(O)CC(NC(=O)c1cc(O)n(-c2ccccc2F)n1)c1ccc(-c2cccc(F)c2)cc1 (stereo not shown)",
    "testedSystem": "Recombinant human cathepsin A (Homo sapiens)",
    "IC50": "0.1 to 1 µM"
  }
]

Exercise: Give the value of IC50 reported for the following: O=C(O)CC(NC(=O)c1cc(O)n(-c2ccccc2Cl)n1)c1cccc(C(F)(F)F)c1 (stereo not shown)
Key: 0.1 to 1 µM

Exercise: Could you please provide reported IC50 for CCc1ccc(C(CC(=O)O)NC(=O)c2cc(O)n(-c3ccc(F)cc3F)n2)cc1 (stereo not shown) ? Thanks!
Key: 0.1 to 1 µM

Exercise: Using known records, supply IC50 for COc1cccc([C@H](CC(=O)O)NC(=O)c2cc(O)n(-c3ccccc3)n2)c1
Key: 1 to 30 µM

====

testedSystem: Recombinant human cathepsin A (Homo sapiens)
Construct: Recombinant human cathepsin A (residues 29-480, with a C-terminal 10-His tag); 10-His (C); purchased R&D Systems 1049-SE
protocol: Cathepsin A inhibitory activity
Format: biochemical
assaySetup: read-out: Activity (2): Cathepsin A inhibitory activity (IC50 class)
measurementType: IC50

These recorded examples may help you get a feel for the data.
[
  {
    "molecule": "Cc1ccccc1[C@H](CC(=O)O)NC(=O)c1cc(O)n(-c2cccc(Cl)c2F)n1",
    "IC50": "100 to 1000 nM"
  },
  {
    "molecule": "Cc1ccccc1[C@H](CC(=O)O)NC(=O)c1cc(OC[C@@H](O)C2CC2)n(-c2ccccc2F)n1 (single isomer, unassigned)",
    "IC50": "< 100 nM"
  },
  {
    "molecule": "COc1ccc(C(CC(=O)O)NC(=O)c2cc(OC)n(-c3ccccc3F)n2)c(C)c1 (stereo not drawn)",
    "IC50": "< 100 nM"
  },
  {
    "molecule": "Cc1ccccc1[C@H](CC(=O)O)NC(=O)c1cc(OC[C@@](C)(O)C2CC2)n(-c2ccccc2F)n1 (single isomer, unassigned)",
    "IC50": "< 100 nM"
  }
]

Exercise: Provide measured IC50 value, entry: CCOc1cc(C(=O)NC(CC(=O)O)c2cccc(F)c2C)nn1-c1ccccc1F (stereo not drawn)
Key: < 100 nM

Exercise: Please look at this molecule and report its IC50: CCOc1cc(C(=O)N[C@@H](CC(=O)O)c2ccccc2C)nn1-c1ccccc1F
Key: < 100 nM
